Biological target: T1, human NPR1 expressed on CHO-K1 cells (human, UniProt P16066 33-1061)
T1 sequence: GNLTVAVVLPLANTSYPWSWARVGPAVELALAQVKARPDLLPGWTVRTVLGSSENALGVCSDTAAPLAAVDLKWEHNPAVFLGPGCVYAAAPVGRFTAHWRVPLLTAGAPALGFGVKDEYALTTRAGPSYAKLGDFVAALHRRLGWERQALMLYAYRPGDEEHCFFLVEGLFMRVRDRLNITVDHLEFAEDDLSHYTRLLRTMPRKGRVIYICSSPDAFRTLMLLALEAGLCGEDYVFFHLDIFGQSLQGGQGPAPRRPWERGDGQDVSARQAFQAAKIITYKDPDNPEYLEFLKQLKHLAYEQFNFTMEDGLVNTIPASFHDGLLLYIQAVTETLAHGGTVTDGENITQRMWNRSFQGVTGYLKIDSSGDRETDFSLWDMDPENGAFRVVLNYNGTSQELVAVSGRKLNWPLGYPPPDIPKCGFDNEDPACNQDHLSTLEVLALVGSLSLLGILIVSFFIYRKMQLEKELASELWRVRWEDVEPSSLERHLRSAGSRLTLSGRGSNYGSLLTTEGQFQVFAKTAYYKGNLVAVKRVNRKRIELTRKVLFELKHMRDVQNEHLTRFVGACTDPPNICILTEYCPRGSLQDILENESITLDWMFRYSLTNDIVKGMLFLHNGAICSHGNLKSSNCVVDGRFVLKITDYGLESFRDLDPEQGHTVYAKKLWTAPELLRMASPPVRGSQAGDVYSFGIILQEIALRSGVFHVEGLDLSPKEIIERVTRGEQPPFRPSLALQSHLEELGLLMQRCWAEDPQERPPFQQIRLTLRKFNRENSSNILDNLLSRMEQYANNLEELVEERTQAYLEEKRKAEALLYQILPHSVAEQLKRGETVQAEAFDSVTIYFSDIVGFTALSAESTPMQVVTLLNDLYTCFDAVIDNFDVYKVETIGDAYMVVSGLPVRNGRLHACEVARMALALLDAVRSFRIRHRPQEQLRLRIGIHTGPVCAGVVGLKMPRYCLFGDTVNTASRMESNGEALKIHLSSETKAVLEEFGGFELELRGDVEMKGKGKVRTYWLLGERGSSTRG
Test: cell-based or functional assay
This section presents binders with their documented cGMP conc [nM] at 1 uM IgG, without ANP values.
Please give a number only; it is taken to be in nM.

Before answering, review these 3 worked examples.
- YY05 IgG (YY05_LALA) (antibody, V domains shown) VH: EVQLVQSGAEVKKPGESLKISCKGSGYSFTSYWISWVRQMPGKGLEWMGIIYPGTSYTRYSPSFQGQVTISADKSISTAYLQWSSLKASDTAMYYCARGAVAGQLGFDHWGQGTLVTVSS VL: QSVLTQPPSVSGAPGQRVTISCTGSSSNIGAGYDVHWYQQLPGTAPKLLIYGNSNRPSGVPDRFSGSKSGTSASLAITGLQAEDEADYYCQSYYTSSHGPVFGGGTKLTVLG: 13
- YY01 IgG (YY01_LALA) (antibody, V domains shown) VH: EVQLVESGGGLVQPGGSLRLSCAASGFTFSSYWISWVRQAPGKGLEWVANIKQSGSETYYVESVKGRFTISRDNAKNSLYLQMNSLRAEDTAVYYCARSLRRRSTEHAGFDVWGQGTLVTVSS VL: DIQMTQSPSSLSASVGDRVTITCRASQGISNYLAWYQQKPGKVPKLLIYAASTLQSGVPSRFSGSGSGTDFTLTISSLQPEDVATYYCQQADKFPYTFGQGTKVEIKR: 5
- YY07 IgG (YY07_LALA) (antibody, V domains shown) VH: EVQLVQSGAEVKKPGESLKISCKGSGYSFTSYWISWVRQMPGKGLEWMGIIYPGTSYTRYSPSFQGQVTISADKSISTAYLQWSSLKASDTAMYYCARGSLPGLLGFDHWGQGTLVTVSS VL: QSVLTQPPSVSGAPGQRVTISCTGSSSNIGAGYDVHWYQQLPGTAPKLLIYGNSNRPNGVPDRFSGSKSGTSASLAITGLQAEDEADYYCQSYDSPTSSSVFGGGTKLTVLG: 4

If you can, please state the reported cGMP conc [nM] at 1 uM IgG, without ANP value of YY06 IgG (YY06_LALA) (antibody, V domains shown) VH: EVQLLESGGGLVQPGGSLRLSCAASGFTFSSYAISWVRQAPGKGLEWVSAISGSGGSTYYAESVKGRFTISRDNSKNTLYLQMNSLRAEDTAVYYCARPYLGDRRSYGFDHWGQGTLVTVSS VL: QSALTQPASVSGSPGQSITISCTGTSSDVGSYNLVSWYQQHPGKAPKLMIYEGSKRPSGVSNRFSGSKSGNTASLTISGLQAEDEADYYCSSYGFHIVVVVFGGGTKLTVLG .
12

Where these numbers come from: patent US20200392225A1
